Tested on: HEK-293T
Test: Multiplex assay against HEK293T
Assay type: toxicity, cell-based
Settings: human, 48 h, 10 µM, compound concentration 10 uM, replicate 1
Exercise: for every item that follows, state its recorded Population Fragmented Nuclei (%).
Report only the number, with the unit % understood.

Which value of Population Fragmented Nuclei (%) has been reported for COc1cc(N2CCN(C)CC2)ccc1Nc1ncc2c(n1)N(C)c1ccccc1C(=O)N2C in the records?
16

# input molecule: CCOc1cc(C(=O)N2CCC(N3CCN(C)CC3)CC2)ccc1Nc1ncc2c(n1)N(C1CCCC1)c1ccccc1C(=O)N2C ; wanted: its Population Fragmented Nuclei (%)
23

Requested field: Population Fragmented Nuclei (%). Item: CCOC(=O)c1c(C)[nH]c2ccc3c(c12)CN1CCc2cc(OC)ccc2C1O3 (centres undefined)
19

Endpoint output: Population Fragmented Nuclei (%) of Cl.O=c1c2cccn2c2ccccc2n1CCCN1CCC(c2ccc(Cl)cc2)CC1 . Value?
15

Data request, read-out Population Fragmented Nuclei (%), for Cc1ccc(C(=O)Nc2cccc(C(F)(F)F)c2)cc1Nc1nc(-c2cccnc2)nc2c1cnn2C
23

Need Population Fragmented Nuclei (%) of CCc1cccc(CC)c1NC(=O)c1nn(C)c2c1CCc1cnc(Nc3ccc(C(=O)NC4CCN(C)CC4)cc3OC(F)(F)F)nc1-2 , thanks.
14

# Population Fragmented Nuclei (%) lookup, item Cc1cc(C)c(S(=O)(=O)N(Cc2ccc(-c3cccc(S(C)(=O)=O)c3)cc2)Cc2ccc(C(F)(F)F)o2)c(C)c1
13

Look up Population Fragmented Nuclei (%): O=C(Cc1ccc(-c2ccc(OCCN3CCOCC3)cc2)cn1)NCc1ccccc1
29

Quick one: Population Fragmented Nuclei (%) for CN(C)C(=O)C(CCN1CCC(O)(c2ccc(Cl)cc2)CC1)(c1ccccc1)c1ccccc1.Cl [LOPERAMIDE HYDROCHLORIDE] ?
25

Need Population Fragmented Nuclei (%) of CCCn1c(=O)c2[nH]c(-c3cnn(Cc4cccc(C(F)(F)F)c4)c3)nc2n(CC)c1=O , thanks.
44

Returns the measured Population Fragmented Nuclei (%) for the input molecule. Input: Cc1cn(-c2cc(NC(=O)c3ccc(C)c(Nc4nccc(-c5cccnc5)n4)c3)cc(C(F)(F)F)c2)cn1
64

Request the reported Population Fragmented Nuclei (%) associated with O=C(Nc1ccc(-n2nc(-c3cccnc3)cc2C(F)(F)F)cn1)c1ccc(-c2ccccc2)c(F)c1
14

So what's the measured Population Fragmented Nuclei (%) for this one? COCC(=O)NC/C=C/c1ccc2ncnc(Nc3ccc(Oc4ccc(C)nc4)c(C)c3)c2c1
26

Which Population Fragmented Nuclei (%) is reported for this molecule? CN1C2CCC1CC(OC(c1ccc(F)cc1)c1ccc(F)cc1)C2.Cl (centres undefined)
21

Field request: Population Fragmented Nuclei (%) | item: Cl.O=C(c1ccc(Nc2nccc(-c3cc4ccccc4s3)n2)cc1)N1CCC(N2CCCC2)CC1
35

May I ask what Population Fragmented Nuclei (%) has been recorded for O=C(Nc1ccc(-c2ccnc(Nc3ccc(N4CCOCC4)cc3)n2)cc1)[C@@H]1CCCN1 ?
22

State the recorded Population Fragmented Nuclei (%) for this entry: CNc1cc(Oc2cc(C(=O)Nc3cc(N4CCN(C)CC4)cc(C(F)(F)F)c3)ccc2C)ncn1
32

What does the record list as Population Fragmented Nuclei (%) for CCn1c(=O)c(-c2ccc(-c3cncs3)cc2Cl)cc2cnc(Nc3ccc(N4CCN(C)CC4)cc3)nc21 ?
72

Could you share which Population Fragmented Nuclei (%) value was measured for CCOc1cc2ncc(C#N)c(Nc3ccc(OCc4ccccn4)c(Cl)c3)c2cc1NC(=O)/C=C/CN(C)C ?
29

Form field: reported Population Fragmented Nuclei (%) of O=C(Nc1ccc(Cl)cc1)Nc1cccc(-c2cccc(N3CCCC3)n2)c1
61

Given O=C1N/C(=N/c2ccccc2F)S/C1=C\c1ccc(C(=O)O)cc1 , state its recorded Population Fragmented Nuclei (%).
18

Which measured Population Fragmented Nuclei (%) value corresponds to Cl.Oc1ccc2c3c1O[C@H]1c4[nH]c5c(c4C[C@@]4(O)[C@@H](C2)N(CC2CC2)CC[C@]314)C[C@@]1(O)[C@H]2Cc3ccc(O)c4c3[C@@]1(CCN2CC1CC1)[C@H]5O4 ?
10

What value of measured Population Fragmented Nuclei (%) is listed for O=C1NC(=O)C(c2cnc3ccccn23)=C1c1cn2c3c(cc(F)cc13)CN(C(=O)N1CCCCC1)CC2 ?
11

What value of Population Fragmented Nuclei (%) has been reported for the following molecule? C=C1/C(=C\C=C2/CCC[C@]3(C)[C@@H]([C@H](C)/C=C/[C@H](C)C(C)C)CC[C@@H]23)C[C@@H](O)C[C@@H]1O
23

Recorded Population Fragmented Nuclei (%) of CCCS(=O)(=O)c1nc(NC2CC2)cc(-c2ccc3c(ccn3C3CC(C)(C)NC(C)(C)C3)c2)n1 , please.
67

What value of measured Population Fragmented Nuclei (%) is listed for CN1CCN(C(=O)C(C)(C)c2ccc(C(=O)Nc3cn4cc(-c5ccncc5)ccc4n3)cc2)CC1 ?
19

Reported Population Fragmented Nuclei (%) for S=C(NCCCc1c[nH]cn1)NCCCN(Cc1ccc(Cl)c(Cl)c1)c1ccc(Br)cn1 : what is it?
11

Dear colleague, I am looking for the recorded Population Fragmented Nuclei (%) of the following molecule: CN1CCC(=C2c3ccccc3CC(=O)c3sccc32)CC1.O=C(O)/C=C/C(=O)O [KETOTIFEN FUMARATE]
21

Recorded Population Fragmented Nuclei (%) of CCN1CCN(Cc2ccc(Nc3ncc(F)c(-c4cc(F)c5nc(C)n(C(C)C)c5c4)n3)nc2)CC1.CS(=O)(=O)O , please.
27

###

Tested on: Fibroblast
Test: Multiplex assay against human fibroblast
Format: toxicity, cell-based
Conditions: 48 h, 10 µM, compound concentration 10 uM, replicate 1
Kindly state Total Cell Count for each of the entries shown.
Lab note: write the figure by itself, no unit.

Recorded Total Cell Count of O=C(Nc1ccc(-c2ccnc(Nc3ccc(N4CCOCC4)cc3)n2)cc1)[C@@H]1CCCN1 , please.
179

Item under review: Cl.Oc1ccc2c3c1O[C@H]1c4[nH]c5c(c4C[C@@]4(O)[C@@H](C2)N(CC2CC2)CC[C@]314)C[C@@]1(O)[C@H]2Cc3ccc(O)c4c3[C@@]1(CCN2CC1CC1)[C@H]5O4 . Reported Total Cell Count?
172

Which Total Cell Count reading was recorded for the compound CCOc1cc2ncc(C#N)c(Nc3ccc(OCc4ccccn4)c(Cl)c3)c2cc1NC(=O)/C=C/CN(C)C ?
626

Sample S=C(NCCCc1c[nH]cn1)NCCCN(Cc1ccc(Cl)c(Cl)c1)c1ccc(Br)cn1 — what was its Total Cell Count?
137

Which value of Total Cell Count has been reported for O=C1N/C(=N/c2ccccc2F)S/C1=C\c1ccc(C(=O)O)cc1 in the records?
370

Total Cell Count for CCOC(=O)c1c(C)[nH]c2ccc3c(c12)CN1CCc2cc(OC)ccc2C1O3 (configuration not stated) ?
108

So what's the measured Total Cell Count for this one? CCOc1cc(C(=O)N2CCC(N3CCN(C)CC3)CC2)ccc1Nc1ncc2c(n1)N(C1CCCC1)c1ccccc1C(=O)N2C
60

Need Total Cell Count, item C=C1/C(=C\C=C2/CCC[C@]3(C)[C@@H]([C@H](C)/C=C/[C@H](C)C(C)C)CC[C@@H]23)C[C@@H](O)C[C@@H]1O
351

Recorded Total Cell Count of Cc1ccc(C(=O)Nc2cccc(C(F)(F)F)c2)cc1Nc1nc(-c2cccnc2)nc2c1cnn2C , please.
165

Please give the measured Total Cell Count for this compound: CN(C)C(=O)C(CCN1CCC(O)(c2ccc(Cl)cc2)CC1)(c1ccccc1)c1ccccc1.Cl [LOPERAMIDE HYDROCHLORIDE]
139

Suppose we examine the compound CN1C2CCC1CC(OC(c1ccc(F)cc1)c1ccc(F)cc1)C2.Cl (configuration not stated) ; what Total Cell Count value has been reported?
191

Returns the measured Total Cell Count for the input compound. Input: CN1CCN(C(=O)C(C)(C)c2ccc(C(=O)Nc3cn4cc(-c5ccncc5)ccc4n3)cc2)CC1
162

###

Tested on: U2OS
Assay: Multiplex assay against U2OS
Format: toxicity, cell-based
Conditions: human, 12 h, 10 µM, compound concentration 10 uM, replicate 2
Label Criterion met when Population Tubulin-Different-Phenotype (%) >= 60%; otherwise Criterion not met.

Evaluate Cl.Oc1ccc2c3c1O[C@H]1c4[nH]c5c(c4C[C@@]4(O)[C@@H](C2)N(CC2CC2)CC[C@]314)C[C@@]1(O)[C@H]2Cc3ccc(O)c4c3[C@@]1(CCN2CC1CC1)[C@H]5O4 : Population Tubulin-Different-Phenotype (%) at minimum 60%?
Criterion met

Given COc1cc(N2CCN(C)CC2)ccc1Nc1ncc2c(n1)N(C)c1ccccc1C(=O)N2C , state whether its Population Tubulin-Different-Phenotype (%) is at least 60%.
Criterion met

Given the entry CCn1cc(-c2ccnc3[nH]c(-c4cccc(CN(C)C)c4)cc23)c(-c2ccc(NC(=O)N(C)C)cc2)n1 , answer whether its Population Tubulin-Different-Phenotype (%) meets or surpasses 60%.
Criterion met

Decide: Population Tubulin-Different-Phenotype (%) of O=C(Nc1ccc(-c2ccnc(Nc3ccc(N4CCOCC4)cc3)n2)cc1)[C@@H]1CCCN1 >= 60%?
Criterion not met

Check if Population Tubulin-Different-Phenotype (%) >= 60% (inclusive). Item: Cc1ccc(C(=O)Nc2cccc(C(F)(F)F)c2)cc1Nc1nc(-c2cccnc2)nc2c1cnn2C
Criterion met

Hello, I need to know if CCOC(=O)c1c(C)[nH]c2ccc3c(c12)CN1CCc2cc(OC)ccc2C1O3 (stereo not drawn) has measured Population Tubulin-Different-Phenotype (%) not below 60%. Thanks!
Criterion met

Check the entry CCCn1c(=O)c2[nH]c(-c3cnn(Cc4cccc(C(F)(F)F)c4)c3)nc2n(CC)c1=O : does Population Tubulin-Different-Phenotype (%) equal or exceed 60%?
Criterion not met

Has CNC(=O)c1ccc(Nc2nc(OC3CCCC3)c3c(-c4ccc5nc(C)oc5c4)c[nH]c3n2)c(OC)c1 a recorded Population Tubulin-Different-Phenotype (%) greater than or equal to 60%?
Criterion met
